- assay-remarks: small-molecule microarray binders of probe aDKK1, primary screen, biochemical, biotinylated probe, 635/667 nm fluorescence (AID 1099);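 further: score merges 667nm spot fluorescence with signal to noise across triplicate slides; reference of the scale not given here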
- assay-conditions: higher = more signal
parameter: composite z-score
Keep the answer to the number alone.

The following compounds have reported results that may help.
[
  {
    "compound": "C=C(CCCC)C(=O)CC[C@H](OC(=O)c1ccccc1-c1ccccc1C(=O)O)c1ccccc1OCCO",
    "composite z-score": -0.475
  },
  {
    "compound": "CC1CC/C=C\\[C@H]2OC34C=CCN(CCN5CCOCC5)C(=O)[C@H]3N(C(C)CO)C(=O)[C@@H]4C2C(=O)O1 (some centres not stated)",
    "composite z-score": -0.356
  },
  {
    "compound": "CO[C@H]1O[C@H](CO)[C@@H](OC(=O)Nc2cccc(F)c2)[C@H](OC(=O)Nc2ccccc2-c2ccccc2)[C@H]1OC(=O)Nc1ccccc1-c1ccccc1",
    "composite z-score": 0.255
  },
  {
    "compound": "CCCCCCCCCCC(O)C1C=CC2C(=O)N(C)C(=O)C2N1Nc1cc(OC)c(OC)c(OC)c1 (configuration not stated)",
    "composite z-score": 0.571
  },
  {
    "compound": "CC(C)N1CC=CC23O[C@@H]4/C=C\\CCCOC(=O)C4[C@H]2C(=O)N(CCCCCCO)[C@@H]3C1=O (some centres not stated)",
    "composite z-score": 0.0846
  }
]

IN: Dear colleague, I am looking for the recorded composite z-score of the following compound: "COc1ccc(CCNC(=O)[C@@]2(Cc3ccccc3I)c3ccccc3C(=O)N(Cc3ccccc3Cl)[C@H]2c2ccc(CO)cc2)cc1"
OUT: 0.316

IN: Field request: composite z-score | item: "NC(=O)NCC#Cc1ccc2c(c1)[C@]1(C(=O)N2)[C@H](C(=O)N2CCN(c3ncccn3)CC2)[C@H]2C(=O)O[C@H](c3ccccc3)[C@H](c3ccccc3)N2[C@@H]1c1ccc(OCCO)cc1"
OUT: 0.23

---

- Test system: Chordin-like protein 2 (CHRDL2)
- assay-remarks: CHRDL2 small-molecule binders, primary screen, biochemical, small-molecule microarray, 635 nm fluorescence (AID 1126);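 further: printed compound slides probed with Chrdl2 protein at 4 µg/mL for 1 h at 4 C; score merges 667 nm emission intensity with signal to noise over three replicate slides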
- assay-conditions: small-molecule microarray binding, fluorescence 635 nm; higher = more signal
Consider the following molecules and their measured composite z-score readings.

Past entries and their recorded results:
[
  {
    "molecule": "C=C(COC)C(=O)CC[C@@H](OC(=O)c1cccnc1)c1ccccc1OCCO",
    "tgt": "Chordin-like protein 2 (CHRDL2)",
    "composite z-score": 0.349
  },
  {
    "molecule": "NC(=O)[C@H]1[C@@H]2C(=O)O[C@@H](c3ccccc3)[C@@H](c3ccccc3)N2[C@@H](c2ccc(O)cc2)[C@]12C(=O)Nc1ccc(C#CC3=CCCCC3)cc12",
    "tgt": "Chordin-like protein 2 (CHRDL2)",
    "composite z-score": -0.758
  },
  {
    "molecule": "CN1C=C(C(=O)OCCS(C)(=O)=O)C(C(=O)OCCS(C)(=O)=O)=CC(c2ccc(CO)cc2)=CC1c1cccs1 (centres undefined)",
    "tgt": "Chordin-like protein 2 (CHRDL2)",
    "composite z-score": 0.318
  }
]

Now for the molecule whose composite z-score we want.
IN: Param readout= composite z-score; system= Chordin-like protein 2 (CHRDL2); entry= COc1ccc(C(O)C2C=CC3C(=O)N(c4ccccc4)C(=O)C3N2Nc2ccccc2)cc1 (centres undefined) ; returns value.
OUT: -0.154

---

- assay-remarks: basal 3T3-L1 adipocyte mitochondrial potential changes, profiling panel, cell-based, JC-1 fluorescence, 3T3-L1 adipocytes, 24 h, 100 nL compound (AID 1168); further: test concentration not given here
- assay-conditions: JC-1 mitochondrial fluorescence, higher = more signal, called active from +8 up or from −8 down
The following molecules are shown together with reported z-score values.
Field format: numeric only.

[
  {
    "molecule": "CO[C@H]1O[C@H](CO)[C@@H](OC(=O)Nc2ccc(C#N)cc2)[C@@H]2OC(=O)[C@H](Cc3cccc(Br)c3)C/C=C/C[C@@H](Cc3cccc(Br)c3)C(=O)O[C@@H]12",
    "z-score": 1.74
  }
]

IN: I have this molecule here, "O=C(O)[C@H]1C[C@H]2C(=O)N[C@@H](Cc3ccccc3)C(=O)N2[C@H]1c1cccc(OCCO)c1" , and I need its recorded z-score.
OUT: -0.169

IN: Fill in the blank: the reported z-score of COc1cc(NN2C(C(O)c3ccccc3)C=CC3C(=O)N(C)C(=O)C32)cc(OC)c1OC (stereo unspecified) is ____.
OUT: 0.215

IN: Recorded z-score for "CCCCC=C[C@@H](NC(=O)c1ccccc1)c1ccccc1" , please?
OUT: -1.04

IN: Find the recorded z-score belonging to "Cc1ccc(S[C@]2(C(=O)NC(C)C)CC(=O)N(C(C)C)[C@@H]2c2ccc(CO)cc2I)cc1" and report it.
OUT: 0.389

IN: For "CC(C)(C)OC(=O)CC[C@]1(C(=O)N2CCCCC2)COC(c2ccc(OCCCO)cc2)=N1" , what is its reported z-score?
OUT: -0.378

IN: Need z-score of "CCOC(=O)C1=C[C@@H](C(C)(C)C)N(S(=O)(=O)c2ccc(C)cc2)[C@H]1c1ccccc1" , thanks.
OUT: -0.243

IN: z-score for "COC(=O)[C@@]1(Cc2ccc(OC)cc2)[C@H]2c3cc(C(=O)N4CCCC4)n(Cc4ccc(S(C)(=O)=O)cc4)c3C[C@H]2CN1C(=O)c1ccccc1" ?
OUT: -0.606

IN: Request the reported z-score associated with "COCC(=C=CC[C@@H](O)c1cccc(OCCO)c1)CCO"
OUT: 0.176

---

- Test system: Sam68 (KHDRBS1)
- assay-remarks: Sam68 small-molecule binders, primary screen, biochemical, small-molecule microarray, 635 nm fluorescence (AID 1125);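 further: score merges 667 nm channel intensity with signal to noise over triplicate slides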
- assay-conditions: small-molecule microarray binding, higher = more signal
Measured composite z-score, listed per entry for reference.

IN: Could you share what composite z-score was measured for "COCCOC(=O)N1C(=O)[C@@]2(c3cc(C#CC4(O)CCCCCC4)ccc31)[C@H](c1ccc(OCCO)cc1)N1[C@H](c3ccccc3)[C@H](c3ccccc3)OC(=O)[C@H]1[C@@H]2C(=O)Nc1nc2ccccc2s1" , tested on Sam68 (KHDRBS1)?
OUT: 1.3

IN: Please tell me: composite z-score of Cc1ccccc1C(O)C1C=CC2C(=O)N(c3ccccc3)C(=O)C2N1Nc1ccc([N+](=O)[O-])cc1 (stereo not drawn) , system Sam68 (KHDRBS1)?
OUT: 1.3

IN: Query for Sam68 (KHDRBS1): what composite z-score does the record show for "C=CCNC(=O)[C@H]1[C@@H]2C(=O)O[C@@H](c3ccccc3)[C@@H](c3ccccc3)N2[C@@H](c2ccc(OCCO)cc2)[C@]12C(=O)Nc1ccc(C#CCNC(N)=O)cc12" ?
OUT: 1.18

---

- tgt: Torsin-1A (Homo sapiens) (UniProt O14656)
- Sequence (O14656 whole entry, looked up): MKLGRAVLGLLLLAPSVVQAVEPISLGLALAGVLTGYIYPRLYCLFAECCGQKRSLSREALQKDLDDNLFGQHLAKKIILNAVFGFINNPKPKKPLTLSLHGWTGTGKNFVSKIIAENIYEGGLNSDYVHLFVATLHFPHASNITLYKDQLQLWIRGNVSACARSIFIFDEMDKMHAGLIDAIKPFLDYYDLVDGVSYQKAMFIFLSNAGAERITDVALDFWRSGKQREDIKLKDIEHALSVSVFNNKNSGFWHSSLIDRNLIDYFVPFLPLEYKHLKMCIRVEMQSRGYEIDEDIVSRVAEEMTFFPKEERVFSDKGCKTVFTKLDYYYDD
- assay-remarks: torsin A binders from cell lysate, primary screen, small-molecule microarray, wild-type, 635/667 nm (AID 1149)
- assay-conditions: COS7 hTOR1A-WT lysate, 635 nm fluorescence, higher = more signal
parameter: composite z-score
API doc: respond with a numeric literal and nothing else, no unit.

These recorded examples may help you get a feel for the data.
[
  {
    "compound": "COc1cc2c(cc1O)C(c1ccc(CN3CCCC3)cc1)N(C)CC2 (stereo unspecified)",
    "composite z-score": -0.508
  },
  {
    "compound": "CC(C)CNC(=O)[C@@H]1c2ccccc2C(=O)N(C2CCCCC2)[C@H]1c1ccc(CO)cc1",
    "composite z-score": 0.146
  },
  {
    "compound": "CCOC(=O)C1=C[C@@H](C(C)(C)C)N(S(=O)(=O)c2ccc(C)cc2)[C@H]1c1cccc(Cl)c1",
    "composite z-score": 0.224
  },
  {
    "compound": "O=C1C2C=CC(C(O)c3ccco3)N(Nc3ccccc3)C2C(=O)N1c1ccccc1 (stereo unspecified)",
    "composite z-score": -1.16
  },
  {
    "compound": "COCC1C2CC[C@H]3C(OCc4ccc(OC)cc4)OC[C@]4(C)[C@H]3C2=C(CN4C(=O)OC(C)(C)C)[C@H](C)C1COC (stereo partly specified)",
    "composite z-score": 0.187
  },
  {
    "compound": "O=C1N[C@@H](Cc2ccccc2)C(=O)N2[C@@H]1C[C@@H](C(=O)O)[C@H]2c1ccc(O)cc1",
    "composite z-score": 0.574
  },
  {
    "compound": "COCCCNC(=O)[C@@]1(c2ccc([N+](=O)[O-])cc2)CC(=O)N(C(C)C)[C@@H]1c1ccc(CO)cc1",
    "composite z-score": 0.722
  },
  {
    "compound": "COCCOC(=O)N1C(=O)[C@@]2(c3cc(C#CC4=CCCCC4)ccc31)[C@H](C(=O)N1CCCCCCC1)[C@H]1C(=O)O[C@H](c3ccccc3)[C@H](c3ccccc3)N1[C@@H]2c1ccc(OCCO)cc1",
    "composite z-score": 1.04
  }
]

IN: I am curious: what composite z-score value has been reported for "CCCCC(=O)N(CCN1CCOCC1)[C@@H]1CC(C(=O)NCCO)=C[C@H](Oc2c(I)cc(CO)cc2OC)[C@H]1O" ?
OUT: 0.314

IN: Value lookup for composite z-score; key = "CN(C)CCCNC(=O)[C@@H]1c2ccccc2C(=O)N(C2CCCCC2)[C@H]1c1ccc(CO)cc1"
OUT: 0.567

IN: Item "COc1cc(CO)cc(I)c1O[C@H]1C=C(C(=O)NCCO)C[C@@H](NCC2CCCCC2)[C@@H]1O" has what recorded composite z-score?
OUT: -0.549
